Test system: Mycobacterium tuberculosis
Experiment: Displacement of 14C-SAM from Mycobacterium tuberculosis membrane MenG assessed as reduction in MK8 synthesis at 12.5 uM incubated for 1 hr by liquid scintillation counting method
Format: cell membranes
Active and inactive are the calls of the source. The calls are words filed in the database; no cut-off is given here.
Write down the outcome that applies. Available outcomes: active, inactive

Smiles repr	Class label
CCCN(C)c1ccc(CN2CCC(CSc3ccccc3C(=O)OC)CC2)cc1	inactive
CCCN(C)c1ccc(CN2CCC(COc3noc4ccccc34)CC2)cc1	inactive
c1ccc(Oc2cccc(OCC3CCN(Cc4ccc(N5CCOCC5)cc4)CC3)c2)cc1	inactive
CCCN(C)c1ccc(CN2CCC(COc3ccc(Cl)cc3)CC2)cc1	inactive
CCCN(C)c1ccc(CN2CCC(COc3cccc(Br)c3)CC2)cc1	inactive

query: Could you please tell me the result logged for CCCN(C)c1ccc(CN2CCC(COc3ccc(OC)cc3)CC2)cc1 in this assay?
result: inactive

query: Could you please tell me the result logged for COc1ccc(-c2cc(NC(=O)c3ccc(Cl)cc3F)ccc2OC)cc1 in this assay?
result: active

query: Could you please tell me the result logged for CCCN(C)c1ccc(CN2CCC(COc3cccc(Nc4ccccc4C)c3)CC2)cc1 in this assay?
result: inactive

query: Could you please tell me the result logged for CCCN(C)c1ccc(CN2CCC(COc3cccc(Oc4ccccc4)c3)CC2)cc1 in this assay?
result: inactive
